Origin of measurements: PubChem BioAssay AID602356

target.of.assay: Neurotensin receptor type 1 (Homo sapiens) (UniProt P30989)
Sequence (P30989 whole entry, looked up): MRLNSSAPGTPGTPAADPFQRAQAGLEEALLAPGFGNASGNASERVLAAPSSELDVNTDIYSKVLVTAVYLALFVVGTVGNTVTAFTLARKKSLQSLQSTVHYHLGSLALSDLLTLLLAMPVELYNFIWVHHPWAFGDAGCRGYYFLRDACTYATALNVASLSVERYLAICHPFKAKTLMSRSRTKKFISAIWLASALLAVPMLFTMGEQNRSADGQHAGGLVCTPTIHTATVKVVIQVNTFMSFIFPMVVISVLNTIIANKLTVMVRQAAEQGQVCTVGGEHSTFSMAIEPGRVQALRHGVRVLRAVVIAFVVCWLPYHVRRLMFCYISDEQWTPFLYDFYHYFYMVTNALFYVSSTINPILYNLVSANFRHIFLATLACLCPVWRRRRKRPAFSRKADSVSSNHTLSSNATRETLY
measurement.notes: NTR1 agonists in analog series, SAR follow-up, imaging, image-based, set 3 (AID 602356)
assay.setup: NTR1 image-based agonist assay, cellular imaging
The source made the active and inactive calls. No rule for the calls is given here.
Please state which outcome applies, choosing from active, inactive

Any idea what this test logged for Cc1ccc(-c2nnc3c4cc5c(cc4n(Cc4ccc(F)cc4)cc2-3)OCO5)cc1C ?
inactive

Any idea what this test logged for COc1cccc(OC)c1-c1cc(C(=O)NC2(C(=O)O)C3CC4CC(C3)CC2C4)nn1-c1ccc(C(=O)N(C)CCCN(C)C)cc1C(C)C (stereo not given) ?
inactive

Any idea what this test logged for CC(C)C[C@H](NC(=O)c1cn(-c2ccnc3cc(Cl)ccc23)c(-c2c(Cl)cccc2Cl)n1)C(=O)O ?
active

Any idea what this test logged for COc1cc2nc(C3CC3)nc(N3CCNCC3)c2cc1OC ?
inactive

Any idea what this test logged for COc1ccccc1CN1CCN(c2nc(C3CC3)nc3cc(OC)c(OC)cc23)CC1 ?
inactive

Any idea what this test logged for COc1cc2c3nnc(-c4ccc(F)cc4)c-3cn(Cc3ccc(OC(F)(F)F)cc3)c2cc1OC ?
active

Any idea what this test logged for COc1ccc2c(c1)c1nnc(-c3ccc(F)cc3)c-1cn2Cc1ccc(C)cc1 ?
inactive

Any idea what this test logged for COc1cc2nc(C3CCC3)nc(N3CCN(c4c(C)cccc4C)CC3)c2cc1OC ?
inactive

Any idea what this test logged for COc1cc2nc(C(C)C)nc(N3CCN(c4ccccc4OC)CC3)c2cc1OC ?
active

Any idea what this test logged for COc1ccc2c3nnc(-c4ccc(C)cc4)c-3cn(Cc3ccc(F)cc3)c2c1 ?
active

====

target.of.assay: Neurotensin receptor type 1 (Homo sapiens) (UniProt P30989)
measurement.notes: NTR1 agonists in analog series, SAR follow-up, imaging, image-based, set 3 (AID 602356)
assay.setup: NTR1 image-based agonist assay, cellular imaging
Activity calls are given as the source filed them. The rule behind the calls is not given here.
Please state which outcome applies, choosing from yes (1) for active, no (0) for inactive

Any idea what this test logged for Cc1ccc(Cn2cc3c(-c4ccc(C)cc4)nnc-3c3cc4c(cc32)OCO4)cc1 ?
no (0)

Any idea what this test logged for COc1ccccc1N1CCN(c2nc(C3CCC3)nc3cc4c(cc23)OCO4)CC1 ?
no (0)

Any idea what this test logged for COc1cc2c3nnc(-c4ccc(F)cc4)c-3cn(Cc3cccnc3)c2cc1OC ?
no (0)

Any idea what this test logged for COc1cccc(OC)c1-c1nc(C(=O)N[C@@H](CC(C)C)C(=O)O)cn1-c1ccnc2ccccc12 ?
yes (1)

Any idea what this test logged for COc1cc2nc(C3CCC3)nc(N3CCN(c4ccccc4C)CC3)c2cc1OC ?
yes (1)

Any idea what this test logged for COc1cccc(OC)c1-c1nc(C(=O)N[C@@H](CC(C)C)C(=O)O)cn1-c1ccncc1 ?
no (0)

Any idea what this test logged for COc1cc2c3nnc(-c4ccc(F)cc4)c-3cn(Cc3ccccn3)c2cc1OC ?
no (0)

Any idea what this test logged for COc1cc2nc(-c3ccccc3)nc(N3CCN(c4ccccc4)CC3)c2cc1OC ?
no (0)

Any idea what this test logged for COc1ccccc1-c1nc(C(=O)N[C@@H](CC(C)C)C(=O)O)cn1-c1ccnc2ccccc12 ?
no (0)

====

target.of.assay: Neurotensin receptor type 1 (Homo sapiens)
measurement.notes: NTR1 agonists in analog series, SAR follow-up, imaging, image-based, set 3 (AID 602356)
assay.setup: NTR1 image-based agonist assay, cellular imaging
Activity calls are given as the source filed them. The rule behind the calls is not given here.
Please state which outcome applies, choosing from 1 (yes) for active, 0 (no) for inactive

Any idea what this test logged for COc1cc2nc(-c3ccccc3)nc(N3CCN(c4ccc(F)cc4)CC3)c2cc1OC ?
0 (no)

Any idea what this test logged for COc1cccc(OC)c1-c1nc(C(=O)N[C@@H](CC(C)C)C(=O)O)cn1-c1ccc(C)cc1 ?
0 (no)

Any idea what this test logged for COc1cc2nc(C3CC3)nc(N3CCN(Cc4ccc(C)cc4)CC3)c2cc1OC ?
0 (no)

Any idea what this test logged for COc1cccc(OC)c1-c1cc(C(=O)O)nn1-c1ccnc2cc(Cl)ccc12 ?
0 (no)

Any idea what this test logged for CCOC(=O)c1cc(-c2c(OC)cccc2OC)n(-c2ccnc3cc(Cl)ccc23)n1 ?
0 (no)

Any idea what this test logged for COc1ccc2c3nnc(-c4ccc(C)cc4)c-3cn(Cc3ccccc3)c2c1 ?
1 (yes)

Any idea what this test logged for Cc1ccc(Cn2cc3c(-c4ccc(C)c(C)c4)nnc-3c3cc4c(cc32)OCO4)cc1 ?
1 (yes)

Any idea what this test logged for COc1cccc(OC)c1-c1cc(C(=O)N[C@@H](CC(C)C)C(=O)OC(C)(C)C)nn1-c1ccnc2cc(Cl)ccc12 ?
1 (yes)

Any idea what this test logged for CCOc1ccc(-c2nnc3c4cc(OC)c(OC)cc4n(Cc4ccc(C)cc4)cc2-3)cc1 ?
1 (yes)

Any idea what this test logged for COc1cc2nc(C3CC3)nc(N3CCN(C(=O)c4ccccc4)CC3)c2cc1OC ?
0 (no)

Any idea what this test logged for COc1ccc(Cn2cc3c(-c4ccc(OC)cc4)nnc-3c3ccccc32)cc1 ?
0 (no)

Any idea what this test logged for Cc1ccc(Cn2cc3c(-c4ccc(Cl)cc4)nnc-3c3cc4c(cc32)OCO4)cc1 ?
0 (no)

Any idea what this test logged for COc1cc2nc(C3CC3)nc(N3CCN(S(=O)(=O)c4ccccc4)CC3)c2cc1OC ?
0 (no)

Any idea what this test logged for COc1cc2c3nnc(-c4ccccc4)c-3cn(Cc3ccc(C)cc3)c2cc1OC ?
0 (no)

Any idea what this test logged for COc1cccc(OC)c1-c1nc(C(=O)O)cn1-c1ccncc1 ?
0 (no)

Any idea what this test logged for COc1cc2c3nnc(-c4ccc(F)cc4)c-3cn(Cc3ccc(N(C)C)cc3)c2cc1OC ?
0 (no)

Any idea what this test logged for COc1cc2c3nnc(-c4ccc(C)cc4)c-3cn(Cc3ccccc3)c2cc1OC ?
0 (no)

Any idea what this test logged for CC(C)C[C@H](NC(=O)c1cn(-c2ccncc2)c(-c2ccccc2)n1)C(=O)O ?
0 (no)

Any idea what this test logged for COc1ccc2c(c1)c1nnc(-c3ccc(F)cc3)c-1cn2Cc1ccccc1 ?
1 (yes)

Any idea what this test logged for COc1cc2nc(-c3ccccc3)nc(N3CCN(c4ccccc4F)CC3)c2cc1OC ?
0 (no)

====

target.of.assay: Neurotensin receptor type 1 (Homo sapiens) (UniProt P30989)
measurement.notes: NTR1 agonists in analog series, SAR follow-up, imaging, image-based, set 3 (AID 602356)
assay.setup: NTR1 image-based agonist assay, cellular imaging
Activity calls are given as the source filed them. No rule for the calls is given here.
Please state which outcome applies, choosing from Y = active, N = inactive

Any idea what this test logged for COc1ccc2nc(C3CC3)nc(N3CCN(c4ccccc4OC)CC3)c2c1 ?
Y

Any idea what this test logged for COc1cc2c3nnc(-c4ccc(F)cc4)c-3cn(Cc3cccc(N(C)C)c3)c2cc1OC ?
N

Any idea what this test logged for CCc1nc(N2CCN(c3ccccc3OC)CC2)c2cc(OC)c(OC)cc2n1 ?
N

Any idea what this test logged for COc1cc2c3nnc(-c4ccccc4)c-3cn(Cc3ccccc3)c2cc1OC ?
Y

Any idea what this test logged for Clc1ccc(-c2nnc3c4cc5c(cc4n(Cc4ccccc4)cc2-3)OCO5)cc1 ?
N

====

target.of.assay: Neurotensin receptor type 1 (Homo sapiens) (UniProt P30989)
measurement.notes: NTR1 agonists in analog series, SAR follow-up, imaging, image-based, set 3 (AID 602356)
assay.setup: NTR1 image-based agonist assay, cellular imaging
Activity calls are given as the source filed them. How the calls were made is not given here.
Please state which outcome applies, choosing from active, inactive

Any idea what this test logged for Fc1ccc(Cn2cc3c(-c4ccc(F)cc4)nnc-3c3cc4c(cc32)OCO4)cc1 ?
active

Any idea what this test logged for COc1cc2nc(-c3ccccc3)nc(N3CCN(c4ccc(Cl)cc4)CC3)c2cc1OC ?
inactive

Any idea what this test logged for COc1ccccc1-c1cc(C(=O)N[C@@H](CC(C)C)C(=O)O)nn1-c1ccnc2cc(Cl)ccc12 ?
active

Any idea what this test logged for Fc1ccc(-c2nnc3c4cc5c(cc4n(Cc4ccccc4)cc2-3)OCO5)cc1 ?
active

Any idea what this test logged for COc1cccc(N2CCN(c3nc(C4CCC4)nc4cc(OC)c(OC)cc34)CC2)c1 ?
active

====

target.of.assay: Neurotensin receptor type 1 (Homo sapiens)
measurement.notes: NTR1 agonists in analog series, SAR follow-up, imaging, image-based, set 3 (AID 602356)
assay.setup: NTR1 image-based agonist assay, cellular imaging
Calls of active or inactive are those of the source. The rule behind the calls is not given here.
quantity.kind: EC50

Worked set:
>>> df
                           structure_string   reading
0  CCc1ccc(-c2nnc3c4cc(OC)c(OC)cc4n(Cc4ccccc4)cc2-3)cc1  inactive
1  Cc1cccc(C)c1-c1nc(C(=O)N[C@@H](CC(C)C)C(=O)O)cn1-c1ccnc2cc(Cl)ccc12   9.23 µM
2  COc1cc2c3nnc(-c4ccc(C)c(C)c4)c-3cn(Cc3ccc(C)cc3)c2cc1OC    4.9 µM
3  COc1cc2nc(C3CCC3)nc(N3CCN(c4ccccc4)CC3)c2cc1OC   12.1 µM
4  COc1cc2nc(CCN3CCN(c4ccccc4OC)CC3)nc(N3CCN(c4ccccc4OC)CC3)c2cc1OC  inactive

Form: Entry = COc1cc2nc(C3CCC3)nc(N3CCN(c4ccccc4[N+](=O)[O-])CC3)c2cc1OC | System = Neurotensin receptor type 1 (Homo sapiens) | EC50 = ____
inactive

Form: Entry = COc1ccccc1N1CCN(c2nc(C3CCC3)nc3ccccc23)CC1 | System = Neurotensin receptor type 1 (Homo sapiens) | EC50 = ____
inactive

Form: Entry = COc1cc2ncnc(N3CCN(c4ccccc4OC)CC3)c2cc1OC | System = Neurotensin receptor type 1 (Homo sapiens) | EC50 = ____
> 80 µM (inactive)

Form: Entry = COc1ccccc1-c1nc(C(=O)N[C@@H](CC(C)C)C(=O)O)cn1-c1ccncc1 | System = Neurotensin receptor type 1 (Homo sapiens) | EC50 = ____
> 80 µM (inactive)
